So I've got a bunch of binders here, and I need their t½ values.
assayedTarget: T1, SARS-CoV2 Spike ecto foldon Trimer expressed with a C-terminal myc-myc-hexahistidine (SARS-CoV-2, UniProt P0DTC2 14-1213)
T1 construct: extracellular domain
assayOverview: SPR Biacore, mAb captured by anti-hFc, 25C
One number for each entry, in h.

Given item mAb14312 (antibody, V domains shown) VH: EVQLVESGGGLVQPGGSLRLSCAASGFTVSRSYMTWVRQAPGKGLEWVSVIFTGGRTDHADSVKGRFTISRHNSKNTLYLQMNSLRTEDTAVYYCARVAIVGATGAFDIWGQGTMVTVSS VL: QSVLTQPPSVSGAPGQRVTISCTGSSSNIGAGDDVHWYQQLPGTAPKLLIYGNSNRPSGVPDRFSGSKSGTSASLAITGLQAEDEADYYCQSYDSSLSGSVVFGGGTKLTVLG , the value recorded as its t½ is 3.67

Given item mAb14284 (antibody, V domains shown) VH: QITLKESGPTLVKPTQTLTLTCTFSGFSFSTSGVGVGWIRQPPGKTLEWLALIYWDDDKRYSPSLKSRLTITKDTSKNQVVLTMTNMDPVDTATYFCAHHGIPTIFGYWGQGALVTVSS VL: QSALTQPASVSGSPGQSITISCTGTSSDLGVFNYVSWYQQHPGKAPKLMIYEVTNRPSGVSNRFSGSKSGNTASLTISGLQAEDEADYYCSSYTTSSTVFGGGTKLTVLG , the value recorded as its t½ is 14.7

Given item mAb15150 (antibody, V domains shown) VH: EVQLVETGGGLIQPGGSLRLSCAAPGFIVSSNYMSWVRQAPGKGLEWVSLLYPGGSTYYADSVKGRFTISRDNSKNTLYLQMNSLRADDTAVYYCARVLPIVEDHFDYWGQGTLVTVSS VL: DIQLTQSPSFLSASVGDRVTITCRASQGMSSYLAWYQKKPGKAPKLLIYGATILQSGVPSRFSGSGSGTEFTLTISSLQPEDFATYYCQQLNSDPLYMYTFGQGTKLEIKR , the value recorded as its t½ is 19.2

Given item mAb14258 (antibody, V domains shown) VH: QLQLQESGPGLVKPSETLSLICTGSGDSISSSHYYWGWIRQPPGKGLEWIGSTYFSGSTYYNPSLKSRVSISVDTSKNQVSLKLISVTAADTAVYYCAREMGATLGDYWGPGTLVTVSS VL: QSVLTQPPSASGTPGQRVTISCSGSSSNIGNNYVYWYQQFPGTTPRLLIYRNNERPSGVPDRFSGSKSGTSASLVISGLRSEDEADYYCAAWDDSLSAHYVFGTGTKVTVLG , the value recorded as its t½ is 3.92

Kindly consider the entry below.
Given item mAb14286 (antibody, V domains shown) VH: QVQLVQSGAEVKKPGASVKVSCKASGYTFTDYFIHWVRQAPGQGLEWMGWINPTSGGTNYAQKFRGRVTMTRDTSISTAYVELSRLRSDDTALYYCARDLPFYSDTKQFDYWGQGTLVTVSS VL: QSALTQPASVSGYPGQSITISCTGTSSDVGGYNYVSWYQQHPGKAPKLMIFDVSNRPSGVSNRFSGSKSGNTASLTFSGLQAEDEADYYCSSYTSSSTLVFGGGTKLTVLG , the value recorded as its t½ is 2.21
